These measurements were taken from the RNAGym collection of RNA variant scans (doi:10.1126/science.aae0568).

B1: tRNA (parent)
chain: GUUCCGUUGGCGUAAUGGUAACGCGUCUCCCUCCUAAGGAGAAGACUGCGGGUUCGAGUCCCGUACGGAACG

Variants of: B1
Assay: yeast fitness relative to wild type (ratio to wild type); higher = fitter; tRNA-Arg(CCU), competitive growth, 37 C, YPD
Variants at the floor of the assay were thinned out.
Class Satisfied: yeast fitness at least 0.6. Class Not satisfied: yeast fitness below 0.6.

Please review the entries below; each comes with its answer.
variant_designation: A21U U28C C29G C49G A70U
class_name: Not satisfied
--
variant_designation: C11G C24G G67C
class_name: Not satisfied
--
variant_designation: U13A C30A C31U A43C
class_name: Satisfied
--
variant_designation: C5A C22U
class_name: Satisfied
--
variant_designation: C30A U54A A57C
class_name: Not satisfied
--
variant_designation: C4G A37G
class_name: Satisfied
--
variant_designation: G25C C29A U32A A65U
class_name: Not satisfied
--
variant_designation: G10A C29A C55G A65G
class_name: Satisfied
--
variant_designation: G25A A36U
class_name: Not satisfied
--
variant_designation: C4U C61U
class_name: Satisfied

Hi team, for C22U U26A C34A A37U G48C , is the recorded yeast fitness at or above 0.6?
Satisfied

Hi team, for A21C C46U , is the recorded yeast fitness at or above 0.6?
Satisfied
